Reported fa (fraction of fluorophore accessible to the quencher), apo-Tf values for the following compounds.
# Experimental target: Apo-transferrin (apo-Tf) (Homo sapiens, UniProt P02787)
# Construct: purchased Sigma Aldrich Chemical Co. (Schnelldorf, Germany)
# Sequence (P02787 20-698): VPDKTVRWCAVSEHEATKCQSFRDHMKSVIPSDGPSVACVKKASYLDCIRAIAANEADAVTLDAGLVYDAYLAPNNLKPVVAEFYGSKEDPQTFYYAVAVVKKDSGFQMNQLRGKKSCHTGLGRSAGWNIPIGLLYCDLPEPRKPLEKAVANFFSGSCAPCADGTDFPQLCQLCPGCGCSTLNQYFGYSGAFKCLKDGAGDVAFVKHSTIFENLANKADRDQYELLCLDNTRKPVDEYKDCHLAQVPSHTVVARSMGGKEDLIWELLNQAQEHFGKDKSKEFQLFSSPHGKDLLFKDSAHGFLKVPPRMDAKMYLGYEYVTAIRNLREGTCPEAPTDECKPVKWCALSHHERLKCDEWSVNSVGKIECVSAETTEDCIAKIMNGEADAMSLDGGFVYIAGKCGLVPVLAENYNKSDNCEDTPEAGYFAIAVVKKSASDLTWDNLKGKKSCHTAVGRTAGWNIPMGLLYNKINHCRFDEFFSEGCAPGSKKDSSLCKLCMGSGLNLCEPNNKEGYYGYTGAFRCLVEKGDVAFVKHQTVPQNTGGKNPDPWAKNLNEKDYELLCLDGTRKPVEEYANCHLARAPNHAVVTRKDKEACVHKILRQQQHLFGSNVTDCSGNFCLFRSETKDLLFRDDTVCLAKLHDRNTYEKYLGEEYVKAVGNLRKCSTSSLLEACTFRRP
# Experimental protocol: Fluorescence quenching of apo-transferrin
# Assay type: binding
# Assay conditions: 298 K, modified Stern-Volmer
Please respond with just the number, no unit label.

Query: # query: fa (fraction of fluorophore accessible to the quencher), apo-Tf | item CCn1cc(C(=O)O)c(=O)c2cc3c(cc21)OCO3 [oxo, reference compound] | system: Apo-transferrin (apo-Tf) (Homo sapiens, UniProt P02787)
Result: 0.36

Query: # query: fa (fraction of fluorophore accessible to the quencher), apo-Tf | item CCn1cc(C(=O)[O][Y]([OH])[O]C(=O)c2cn(CC)c3cc4c(cc3c2=O)OCO4)c(=O)c2cc3c(cc21)OCO3.O [Y oxo, [Y(oxo)(OH)(H2O)]] | system: Apo-transferrin (apo-Tf) (Homo sapiens, UniProt P02787)
Result: 1.15

====

System: Human serum albumin (HSA) (Homo sapiens, UniProt P02768) | Read-out: pKd
Sequence (P02768 25-609): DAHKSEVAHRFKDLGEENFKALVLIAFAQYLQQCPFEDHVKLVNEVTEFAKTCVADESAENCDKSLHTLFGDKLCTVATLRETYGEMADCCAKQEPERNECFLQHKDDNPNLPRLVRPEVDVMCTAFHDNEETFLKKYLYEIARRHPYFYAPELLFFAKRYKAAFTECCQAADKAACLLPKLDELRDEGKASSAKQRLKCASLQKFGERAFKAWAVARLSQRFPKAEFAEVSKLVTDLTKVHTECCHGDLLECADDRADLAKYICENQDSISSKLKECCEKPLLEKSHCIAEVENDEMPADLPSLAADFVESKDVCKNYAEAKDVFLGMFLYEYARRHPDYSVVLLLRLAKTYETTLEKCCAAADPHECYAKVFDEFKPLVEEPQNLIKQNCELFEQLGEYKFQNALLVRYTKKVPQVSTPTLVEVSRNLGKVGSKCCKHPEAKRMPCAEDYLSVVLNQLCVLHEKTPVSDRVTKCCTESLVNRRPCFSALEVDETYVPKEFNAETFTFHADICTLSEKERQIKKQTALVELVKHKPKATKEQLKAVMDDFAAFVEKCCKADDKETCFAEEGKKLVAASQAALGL
Note on pKd: it is the negative log10 of concentration, concentration in mol/L.

Illustrative cases are given below, each with its answer.
1) CCn1cc(C(=O)[O][Sm]([OH])[O]C(=O)c2cn(CC)c3cc4c(cc3c2=O)OCO4)c(=O)c2cc3c(cc21)OCO3.O.O [Sm oxo, [Sm(oxo)(OH)(H2O)] · H2O] :: 5.33
2) CCn1cc(C(=O)[O][Y]([OH])[O]C(=O)c2cn(CC)c3cc4c(cc3c2=O)OCO4)c(=O)c2cc3c(cc21)OCO3.O [Y oxo, [Y(oxo)(OH)(H2O)]] :: 5.20
3) CCn1cc(C(=O)[O][La]([OH])[O]C(=O)c2cn(CC)c3cc4c(cc3c2=O)OCO4)c(=O)c2cc3c(cc21)OCO3.O [La oxo, [La(oxo)(OH)(H2O)]] :: 5.21

Now take the following molecule into account.
Query: # query: pKd | item CCn1cc(C(=O)[O][Eu]([OH])[O]C(=O)c2cn(CC)c3cc4c(cc3c2=O)OCO4)c(=O)c2cc3c(cc21)OCO3.O [Eu oxo, [Eu(oxo)(OH)(H2O)]] | system: Human serum albumin (HSA) (Homo sapiens, UniProt P02768)
Result: 5.25

====

Reported pKd values for the following molecules.
# Experimental target: Apo-transferrin (apo-Tf) (Homo sapiens)
# Construct: purchased Sigma Aldrich Chemical Co. (Schnelldorf, Germany)
# Experimental protocol: Fluorescence quenching of apo-transferrin
# Type: binding
# Assay conditions: 298 K; read-out: Kd, apo-Tf
Note on pKd: it is the negative log10 of concentration, concentration in mol/L.

1) CCn1cc(C(=O)[O][Eu]([OH])[O]C(=O)c2cn(CC)c3cc4c(cc3c2=O)OCO4)c(=O)c2cc3c(cc21)OCO3.O [Eu oxo, [Eu(oxo)(OH)(H2O)]] :: 5.08
2) CCn1cc(C(=O)[O][Y]([OH])[O]C(=O)c2cn(CC)c3cc4c(cc3c2=O)OCO4)c(=O)c2cc3c(cc21)OCO3.O [Y oxo, [Y(oxo)(OH)(H2O)]] :: 5.08
3) CCn1cc(C(=O)[O][Sm]([OH])[O]C(=O)c2cn(CC)c3cc4c(cc3c2=O)OCO4)c(=O)c2cc3c(cc21)OCO3.O.O [Sm oxo, [Sm(oxo)(OH)(H2O)] · H2O] :: 5.24

Query: # get_value(readout='pKd', item= CCn1cc(C(=O)[O][La]([OH])[O]C(=O)c2cn(CC)c3cc4c(cc3c2=O)OCO4)c(=O)c2cc3c(cc21)OCO3.O [La oxo, [La(oxo)(OH)(H2O)]] )
Result: 5.05
